Just for reference, the supplement of paper PMC10724198 is where these values come from.

# Test system: Saccharomyces cerevisiae
# experimentSummary: protein stability index of tFT-peptide fusion (C-terminal peptide) (PSI (0-1 scale)); higher = more stable (slower turnover);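 also: PSI is a weighted mean of sequencing reads over stability bins, variants kept only with over 10 reads, mCherry proximal and sfGFP distal, peptide attached via GGGS linker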
# particulars: genetic background: wild type; temperature: 30 C
observedProperty: protein stability index

- macromoleculeSequence: "SAPPDVAPLFSP"
  observedProperty: "protein stability index"
  measValue: 0.74
- macromoleculeSequence: "GRSGGGTGAPSR"
  observedProperty: "protein stability index"
  measValue: 0.637
- macromoleculeSequence: "CFCVSVHVWLLM"
  observedProperty: "protein stability index"
  measValue: 0.147
- macromoleculeSequence: "KRYKSYEDKNVM"
  observedProperty: "protein stability index"
  measValue: 0.696
- macromoleculeSequence: "PHNPTFSPPTCP"
  observedProperty: "protein stability index"
  measValue: 0.751
- macromoleculeSequence: "PPPPPPTPDPLA"
  observedProperty: "protein stability index"
  measValue: 0.666
- macromoleculeSequence: "LCSPCSSLFHSQ"
  observedProperty: "protein stability index"
  measValue: 0.656
- macromoleculeSequence: "FGVRPVSVPLCG"
  observedProperty: "protein stability index"
  measValue: 0.592
- macromoleculeSequence: "SLILRKDKKKKK"
  observedProperty: "protein stability index"
  measValue: 0.69
- macromoleculeSequence: "GGWRVLHAWVAV"
  observedProperty: "protein stability index"
  measValue: 0.463
- macromoleculeSequence: "RRHHSVSPLPFL"
  observedProperty: "protein stability index"
  measValue: 0.709
- macromoleculeSequence: "IWLSCCPLAFWS"
  observedProperty: "protein stability index"
  measValue: 0.69
- macromoleculeSequence: "KKITTDNKKNKI"
  observedProperty: "protein stability index"
  measValue: 0.651
- macromoleculeSequence: "GGASGGAGEGVG"
  observedProperty: "protein stability index"
  measValue: 0.623
- macromoleculeSequence: "FPFTLSPTLFHS"
  observedProperty: "protein stability index"
  measValue: 0.714
- macromoleculeSequence: "RAPSLLRPRSPP"
  observedProperty: "protein stability index"
  measValue: 0.658
- macromoleculeSequence: "HPPPDPPFLAST"
  observedProperty: "protein stability index"
  measValue: 0.611
- macromoleculeSequence: "VFPYGVSRGALL"
  observedProperty: "protein stability index"
  measValue: 0.66
- macromoleculeSequence: "PYFHRRMSLESF"
  observedProperty: "protein stability index"
  measValue: 0.703
- macromoleculeSequence: "RIKEYITDEKNR"
  observedProperty: "protein stability index"
  measValue: 0.674
- macromoleculeSequence: "RLRGLLSPVGPQ"
  observedProperty: "protein stability index"
  measValue: 0.716
- macromoleculeSequence: "HIHRGDRVIGDV"
  observedProperty: "protein stability index"
  measValue: 0.682
- macromoleculeSequence: "GRCGGEGGGEEE"
  observedProperty: "protein stability index"
  measValue: 0.673
- macromoleculeSequence: "RLPAFSSDLLRH"
  observedProperty: "protein stability index"
  measValue: 0.704
- macromoleculeSequence: "IKLKVKIQKENG"
  observedProperty: "protein stability index"
  measValue: 0.654
- macromoleculeSequence: "PLHPPPPPPPHP"
  observedProperty: "protein stability index"
  measValue: 0.717
- macromoleculeSequence: "LSVPVGIRPGRC"
  observedProperty: "protein stability index"
  measValue: 0.702

----------
# System: Saccharomyces cerevisiae
# experimentSummary: protein stability index of tFT-peptide fusion (C-terminal peptide) (PSI (0-1 scale)); higher = more stable (slower turnover)
# particulars: genetic background: wild type; temperature: 30 C
observedProperty: protein stability index

- macromoleculeSequence: "PWAHIRTVQTYV"
  observedProperty: "protein stability index"
  measValue: 0.314
- macromoleculeSequence: "GFLRTVHFLLLG"
  observedProperty: "protein stability index"
  measValue: 0.251
- macromoleculeSequence: "DLFVFFVFHFFL"
  observedProperty: "protein stability index"
  measValue: 0.38
- macromoleculeSequence: "VRGSPNVMWKSQ"
  observedProperty: "protein stability index"
  measValue: 0.238
- macromoleculeSequence: "SCFRFFFLFLFF"
  observedProperty: "protein stability index"
  measValue: 0.238
- macromoleculeSequence: "VWFFGVVLGGLW"
  observedProperty: "protein stability index"
  measValue: 0.421
- macromoleculeSequence: "ACVRLVLCVCRV"
  observedProperty: "protein stability index"
  measValue: 0.225
- macromoleculeSequence: "YLFFHMVVLVVV"
  observedProperty: "protein stability index"
  measValue: 0.105
- macromoleculeSequence: "RLLRGDRMVICS"
  observedProperty: "protein stability index"
  measValue: 0.375
- macromoleculeSequence: "SLICLSVGVLLR"
  observedProperty: "protein stability index"
  measValue: 0.188
- macromoleculeSequence: "PFAFLSLVLLLP"
  observedProperty: "protein stability index"
  measValue: 0.35
- macromoleculeSequence: "SWWISKWVGLNC"
  observedProperty: "protein stability index"
  measValue: 0.402
- macromoleculeSequence: "GLWLRVCIVAWV"
  observedProperty: "protein stability index"
  measValue: 0.0551
- macromoleculeSequence: "FFSFLFLLLFGA"
  observedProperty: "protein stability index"
  measValue: 0.567
- macromoleculeSequence: "RKRTILVIIVVK"
  observedProperty: "protein stability index"
  measValue: 0.217
- macromoleculeSequence: "LLASFWKFIVNI"
  observedProperty: "protein stability index"
  measValue: 0.166
- macromoleculeSequence: "FFCCRLPCLFVL"
  observedProperty: "protein stability index"
  measValue: 0.174
- macromoleculeSequence: "VGDVVWFGVGAG"
  observedProperty: "protein stability index"
  measValue: 0.657
- macromoleculeSequence: "LFFLSASFFFFF"
  observedProperty: "protein stability index"
  measValue: 0.207
- macromoleculeSequence: "FVCLCGFLQVLS"
  observedProperty: "protein stability index"
  measValue: 0.411
- macromoleculeSequence: "GGTGGAGSRGQI"
  observedProperty: "protein stability index"
  measValue: 0.657
- macromoleculeSequence: "LSQPGWFKCCLS"
  observedProperty: "protein stability index"
  measValue: 0.326
- macromoleculeSequence: "GFNIFFFFFFFV"
  observedProperty: "protein stability index"
  measValue: 0.173
- macromoleculeSequence: "IIIRVTILCEQF"
  observedProperty: "protein stability index"
  measValue: 0.137
- macromoleculeSequence: "NYCLYFKLSRLS"
  observedProperty: "protein stability index"
  measValue: 0.25
- macromoleculeSequence: "PALPTPPVSPSP"
  observedProperty: "protein stability index"
  measValue: 0.265
- macromoleculeSequence: "VGLWCWSFVLVW"
  observedProperty: "protein stability index"
  measValue: 0.103
- macromoleculeSequence: "FSLRLFLVLALS"
  observedProperty: "protein stability index"
  measValue: 0.154
- macromoleculeSequence: "AGGVNWWSSWRV"
  observedProperty: "protein stability index"
  measValue: 0.669
- macromoleculeSequence: "CLSGPFRSLAVF"
  observedProperty: "protein stability index"
  measValue: 0.365
- macromoleculeSequence: "PRHVLWLRRLLF"
  observedProperty: "protein stability index"
  measValue: 0.235
- macromoleculeSequence: "CWYRAVSIQYVL"
  observedProperty: "protein stability index"
  measValue: 0.272
- macromoleculeSequence: "TLLMVSMTVRPL"
  observedProperty: "protein stability index"
  measValue: 0.272
